# Test system: HOP-92 NSCLC
# assay_comment: NCI tumour cell line growth inhibition, 48 h
Please go through the items and note down their TGI.

Some solved cases for reference:
| molecule | result |
| --- | --- |
| Cc1nnc2cc(C(=O)O)c3ccccc3n2c1=O | > 10 µM |
| COc1cc([C@@H]2c3cc4c(cc3[C@@H](NC(=O)c3ccc(N)cc3)C3COC(=O)[C@@H]32)OCO4)cc(OC)c1O (some centres not stated) | > 100 µM |
| Nc1ccc2c(c1)C(=O)c1ccccc1-2 | 91 µM |
| CC[C@@]1(O)C(=O)NCc2c1cc1n(c2=O)Cc2cc3ccccc3nc2-1 | > 29.4 µM |
| CCCCC[C@@H]1OCO[C@@]2(C)/C=C(C)/C=C/C(=O)O[C@H]([C@@H](C)[C@@H](O)[C@H](C)[C@@]3(O)C[C@@H](O[C@H]4C[C@@H](O)[C@H](O)[C@@H](C)O4)[C@H](C)[C@@H](C)O3)[C@@H](OC)/C=C/C=C(\C)C[C@@H]1[C@@H]2O (stereo in doubt) | 0.0992 µM |

Quick batch: TGI for everything below.
1. O=C(c1ccccc1)C1C(C(=O)c2ccccc2)N1Cc1ccccc1 (configuration not stated)
2. COC(=O)C1=C(OC)c2cc3c(cc2C(c2cc(OC)c(OC)c(OC)c2)C1C(=O)OC)OCO3 (configuration not stated)

Result block:
["> 100 µM", "> 100 µM"]
